target: recombinant human secreted phospholipase A2 (Homo sapiens); test: Chromogenic assay of recombinant human secreted phospholipase A2 inhibition; assay type: biochemical; conditions: diheptanoyl thio-PC substrate, pH 7.5, 40° C., 30 minutes, absorbance at 405 nanometers; read-out: Inhibition of human secreted PLA2 IC50 ± mean deviation (3-4 tests)
Sequence (P14555 21-144): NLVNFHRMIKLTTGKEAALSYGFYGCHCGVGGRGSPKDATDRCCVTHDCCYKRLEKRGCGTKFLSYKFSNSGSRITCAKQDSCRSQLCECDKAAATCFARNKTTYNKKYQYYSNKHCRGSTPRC
Recorded endpoint: IC50 (µM)
One number for each entry, in µM.

# input Input CCc1c(C(=O)C(N)=O)c2ccsc2n1Cc1ccccc1 [Example 1] , output reported IC50.
# output 5.5
